OBSERVABLE: melting point

Solved cases below.
| COMPOUND | ENDPOINT RESULT |
| --- | --- |
| COc1ccc2nc(-n3ccnc3)nc(NCCSC)c2c1 | 168 to 178 °C |
| CCCNC(=O)C=Cc1ccc2ccn(Cc3ccc(C(=O)NS(=O)(=O)c4ccccc4C)cc3OC)c2c1 | 240 to 242 °C |
| Cc1ccc(-c2ccc3c(c2)C=C(C(=O)Nc2ccc(CNc4ccccn4)cc2)CCO3)cc1 | 189 to 190 °C |
| NS(=O)(=O)c1cc2[nH]c(CCc3ccccc3)nc2cc1Cl | 226 to 228 °C |

Task item: Dear colleague, I am looking for the recorded melting point of the following compound: CS(=O)(=O)c1ccc(C(CC2CCCC2)C(=O)Nc2ccccn2)cc1[N+](=O)[O-] (stereo unspecified)
Reply: 92 to 95 °C

Task item: # melting point lookup, item O=C(/C=C/c1ccc(O)c(O)c1)Nc1ccccc1C(=O)O
Reply: 204 to 206 °C

Task item: Given CN1C(=O)CC[C@]2(C)c3ccc(C#Cc4ccccc4)cc3CC[C@@H]12 , state its recorded melting point.
Reply: 205 to 208 °C

Task item: Record request: melting point value, item CCCCCN1C(=O)C2(COc3cc(F)c(F)cc32)c2ccccc21 (stereo unspecified)
Reply: 48 to 50 °C

Task item: Tell me the measured melting point of Nc1c(-c2ccc(O)cc2)ncnc1-c1ccc(Cl)cc1Cl , please.
Reply: 97.3 to 98.2 °C

====

Each item that follows carries a reported melting point.

| MOLECULE | OBSERVABLE | ENDPOINT RESULT |
| --- | --- | --- |
| COc1ccc(CC(=O)N[C@H]2C[C@H](C(=O)O)Nc3cc(Cl)cc(Cl)c32)cc1 (relative stereo) | melting point | 245 to 247 °C |
| CC(Br)C(=O)NS(=O)(=O)c1ccc2c(c1)CC(C)(C)O2 (stereo not drawn) | melting point | 125 to 128 °C |
| N#Cc1c(O)csc1N | melting point | 300 °C |

Task item: Sample Cc1ccc(N=C=C2C=CC=CN2)c(C)c1[N+](=O)[O-] — what was its melting point?
Reply: 114 to 116 °C

Task item: So what's the measured melting point for this one? CC(C)(Cc1cc2c(OCc3ccc4ccccc4n3)cccc2n1Cc1ccc(Cl)cc1)C(=O)O
Reply: 158 to 160 °C

Task item: Any idea what its melting point is? The molecule is COC(=O)c1ccc(-c2cc(-c3ccccc3)on2)cc1
Reply: 201 to 202 °C

Task item: Name the recorded melting point for C#CCOc1ccc(C)nc1 .
Reply: 32 to 34 °C

Task item: What value of melting point has been reported for the following molecule? CC(=O)c1cc(CN2CCN(CCO)CC2)ccc1O
Reply: 72 to 75 °C

====

# melting point listing for each entry below

Please review the entries below; each comes with its answer.
| COMPOUND | ENDPOINT RESULT |
| --- | --- |
| COC(=O)c1cc(C)c(C(=O)O)c(C)c1 | 191 to 192 °C |
| Cc1ccc(-c2ccc3c(c2)C=C(C(=O)Nc2ccc(-c4ccccn4)cc2)CCO3)cc1 | 228 to 229 °C |
| O=S(=O)(c1ccc(Cl)cc1)C(CCCCF)c1cc(F)ccc1F (stereo not given) | 77 to 78 °C |
| Cc1c(N2C(=O)[C@H]3[C@@H](O)CCN3C2=O)ccc(C#N)c1Cl | 237 to 238 °C |

# context switch: different compound, same melting point
Task item: For CN(C)c1ncc(C(=O)CNCC(O)c2cccc(OC(=O)C(C)(C)C)c2)c(-c2ccccc2)n1 (stereo not given) , what is its reported melting point?
Reply: 145 to 146 °C

====

The entries below come with measured melting point values attached.

| COMPOUND | ENDPOINT RESULT |
| --- | --- |
| Cc1ccc(S(=O)(=O)Nc2ccccc2C#N)cc1 | 134 to 136 °C |
| CCc1cc2c(s1)-n1c(C)nnc1C(CCC(=O)Nc1ccccc1)N=C2c1ccc(Cl)cc1 (stereo not given) | 183 to 185 °C |
| CC(C)N(C(=O)n1oc(=O)n(C)c1=O)c1ccc(F)cc1 | 135 to 136 °C |
| CC(O)Cc1cc2c3ccccc3[nH]c(=O)n2n1 (stereo not given) | 228 to 229 °C |

With those in mind, consider the next compound.
Task item: Reported melting point, compound O=C1c2c(Cl)cccc2-n2cnc(-c3nc(C4CC4)no3)c2[C@@H]2CCCN12 : ____
Reply: 213 to 214 °C

====

OBSERVABLE: melting point

These solved cases illustrate the format of a correct answer.
| MOLECULE | melting point |
| --- | --- |
| C#CC(Oc1cc(C(=O)OC)cc(OC)c1OC)C1CC1 (stereo not given) | 93 to 94 °C |
| CCC(=O)Nc1cnc2ccccc2c1Cl | 151 to 152 °C |
| CC(C)C(C)(C(=O)NCCc1ccccn1)C(C)C | 60 to 61 °C |
| Cc1nc(-c2ccccn2)c2nc(-c3ccccc3)cc-2[nH]1 | 182 to 183 °C |

Task item: For the molecule Clc1cccc(-c2n[nH]cc2-c2ccnc(NCCc3ccccc3)c2)c1 , what melting point is on record?
Reply: 185 to 186 °C

====

OBSERVABLE: melting point

Observe how each entry below is paired with its result.
| COMPOUND | melting point |
| --- | --- |
| CCCC(CCC)C(=O)NCC(=O)NCCCCCCNC(=O)n1cc(F)c(=O)[nH]c1=O | 111 to 112 °C |
| COc1ccc(C(C(=O)OC(C)(C)C)N(C(=O)CNC(=O)Nc2cccc(C)c2)c2ccccc2)cc1 (racemic) | 206 °C |
| CC(=O)OC1OCC[C@@H]1NC(=O)[C@@H](N)CC(C)C (stereo partly drawn) | 75 to 80 °C |
| CC(=CN1C(=O)c2ccccc2C1=O)c1ccco1 | 136 to 137 °C |
| Cc1cc(-c2ccccc2)nc(-c2cccc([N+](=O)[O-])c2)c1C(=O)N1CCN(C)CC1 | 127 to 129 °C |

Task item: Which melting point value belongs to C=C(C)C(=O)NCCCCCC(=O)Nc1cc(Cl)c(C)c(Cl)c1O ?
Reply: 111 to 115 °C

Task item: # input compound: CCCCOCCOc1ccc(-c2ccc3c(c2)C=C(C(=O)OC)CCN3c2ccccc2)cc1 ; wanted: its melting point
Reply: 80 to 82 °C

Task item: Which melting point value is on record for CN1CCC2(CC1)OC(c1ccccc1)c1cc(O)ccc12 (stereo not drawn) ?
Reply: 193 to 200 °C

====

OBSERVABLE: melting point

Check out these entries, answers already filled in.
| COMPOUND | melting point |
| --- | --- |
| CN1CCN(C(=O)Nc2cccc3nc(NC4CCc5ccccc54)ccc23)CC1 (stereo not drawn) | 142 °C |
| O=C1c2ccc(N3CCCCC3)cc2C(=O)c2cc3ccccc3cc21 | 230 to 233 °C |
| CCn1c(=O)c(CC(=O)OC)cc2ccc(O)cc21 | 176 to 178 °C |
| Cc1ccc(S(=O)(=O)N2CCC(Sc3ccccc3)CC2)cc1 | 105 to 108 °C |
| COc1ccc(-n2nc(Cl)cc2-c2ccc(OCCNC(N)=O)cc2)cn1 | 156 to 158 °C |

Task item: Request the reported melting point associated with O=Cc1ccccc1Oc1ccc(Cl)cc1[N+](=O)[O-]
Reply: 100 to 101 °C

Task item: Form field: reported melting point of COc1ccc(CC(C)CC(=O)O)c(C(C)C)c1OC (stereo not drawn)
Reply: 100 to 101 °C

====

The following molecules are shown together with reported melting point values.

Worked cases, answers included:
| MOLECULE | melting point |
| --- | --- |
| CCC(=O)NCC=C1CCc2ccc3nc(C)oc3c21 | 214 to 216 °C |
| CC(C)(C)c1ccc(C2(C)CC(=Cc3ccccc3)CC2=O)cc1 (stereo unspecified) | 140 to 143 °C |
| O=C(Nc1ccccc1C(F)(F)F)ONC1=Nc2ccc(Cl)cc2C(c2ccccc2)=NC1 | 190 °C |
| OCc1cc(O)cc(Nc2c3ccccc3nc3ccccc23)c1 | 201 to 202 °C |
| CN(C)CC/C=C/c1ccc2c(Nc3ccc(Sc4nccn4C)c(Cl)c3)c(C#N)cnc2c1 | 191 to 198 °C |
| CS(=O)(=O)NC(=O)CCCC[C@H]1CCSS1 | 71 to 73 °C |

Task item: Field request: melting point | item: CCOC(=O)c1ccc(C(OC(c2ccc(C(=O)OCC)cc2)c2ccc3c(c2)C(C)(C)CCC3(C)C)c2ccc3c(c2)C(C)(C)CCC3(C)C)cc1 (stereo unspecified)
Reply: 109 to 111 °C

Task item: Record request: melting point value, item O=C(CNc1ccc2[nH]c(=O)sc2c1)N1CCC(Cc2ccccc2)CC1
Reply: 196 to 199 °C

Task item: Fill in: melting point of CCOC(=S)c1cnc(C)nc1NC(=O)Nc1ccccc1Cl is ___
Reply: 172 to 173 °C

Task item: Recorded melting point for CC(C)c1ccc(-c2ccc(/C=C/C(=O)Nc3ccc(CN(C)C4CCOCC4)cc3)s2)cc1 , please?
Reply: 187 to 189 °C

Task item: Record request: melting point value, item COc1cccc2cnc(C)nc12
Reply: 131 to 132 °C

Task item: Form field: reported melting point of CC1(C)N=C(N)N=C(N)N1OCc1cccc2ccccc12
Reply: 170 to 171 °C

Task item: Using the record for O=C(Nc1ccc(-n2nc(C(F)(F)F)cc2C(F)(F)F)cc1)c1nc(Cl)ccc1Cl , report its melting point.
Reply: 118 to 119 °C

Task item: Given Cc1ccc(C2=NOC(c3cc(Cl)cc(Cl)c3)(C(F)(F)F)C2)cc1Cl (stereo unspecified) , state its recorded melting point.
Reply: 97 to 99 °C

Task item: Dear colleague, I am looking for the recorded melting point of the following molecule: CC(=O)OCC(=O)CS(=O)(=O)C(c1ccc(Cl)cc1)c1ccc(Cl)cc1
Reply: 57 to 60 °C

Task item: Request the reported melting point associated with O=C1CNc2ncc(I)cc2N1Cc1cccc(F)c1C(F)(F)F
Reply: > 200 °C

Task item: Look at this molecule and give its reported melting point. Cc1ccc(C=Cc2ccc(-c3ccccc3)s2)cc1
Reply: 159 to 160 °C

Task item: Would you kindly share the measured melting point for COC(=O)c1cc(Cl)c(C(=O)OC)cc1Cl ?
Reply: 134 to 135 °C

Task item: Quick check: melting point of CCCc1c(OCCCOC2CC(CC(=O)O)Oc3ccccc32)ccc(C(C)=O)c1O (stereo unspecified) ?
Reply: 102 to 105 °C

Task item: Requested field: melting point. Item: CCOC(=O)C1(C(=O)OCC)N(c2ccccc2)C(=O)CC1(C)O (stereo unspecified)
Reply: 98 to 99 °C

Task item: What does the record list as melting point for Cc1cc(C(=O)Nc2ccn3cc(-c4ccccc4)nc3n2)cc(Cl)n1 ?
Reply: 148 to 151 °C
